System: DU-145 prostate
Test: NCI tumour cell line growth inhibition, 48 h; in the data active = GI50 below about 0.43 µM; inactive = the rest
The reply should name one outcome from active, inactive

Write down the call the test reported for this compound. Item: O=[N+]([O-])c1cc(Cl)c(Cl)c([N+](=O)[O-])c1Cl
inactive

Write down the call the test reported for this compound. Item: O=c1c2cc(Cl)ccc2oc2ccc(OCCCCCN3CCCCC3)cc12
inactive

Write down the call the test reported for this compound. Item: COc1cc(C(=O)/C(C)=C/c2c[nH]c3ccccc23)cc(OC)c1OC
active

Write down the call the test reported for this compound. Item: Cn1c([N+](=O)[O-])cnc1/C=C1\Oc2ccccc2C1=O
active

====

System: DMS 114 small cell lung
Assay: NCI tumour cell line growth inhibition, 48 h
The threshold is inclusive: TGI of exactly 20 µM counts as t; values below receive f.

In plain terms: is recorded TGI at least 20 µM for COC1CC(C)C(OC)C2=CC(=O)C=C(NC(=O)/C(C)=C/C=C\C(C)C(OC(N)=O)/C(C)=C\C(C)C1OC)C2=O (configuration not stated) ?
f

In plain terms: is recorded TGI at least 20 µM for COc1ccc([N+]2=NC(c3ccc([N+](=O)[O-])cc3)=NN(c3ccccc3)C2)cc1 ?
t

In plain terms: is recorded TGI at least 20 µM for O=S(=O)(N/N=C/c1ccc(/C=N/NS(=O)(=O)c2ccccc2)cc1)c1ccccc1 ?
t

In plain terms: is recorded TGI at least 20 µM for COc1cc(/C=C(\C#N)C(=O)c2ccccc2)ccc1OCc1ccccc1 ?
t

In plain terms: is recorded TGI at least 20 µM for CCNC(=O)CCN(C(=O)O)S(=O)(=O)c1ccc(NC(=O)c2ccccc2)cc1 ?
t

In plain terms: is recorded TGI at least 20 µM for O=C(Nc1cc(Cl)c(Cl)cc1Cl)C(=O)C1C=CCS1(=O)=O (configuration not stated) ?
t

In plain terms: is recorded TGI at least 20 µM for O=[N+]([O-])c1cccc(C2N3CCCCC3[C@@H]3c4[nH]c5ccccc5c4CCN23)c1 (some centres not stated) ?
t

In plain terms: is recorded TGI at least 20 µM for COc1c2nc(CCl)[nH]c(=O)c2c(OC)c2nc(CCl)[nH]c(=O)c12 ?
t

In plain terms: is recorded TGI at least 20 µM for O=C(Nc1ccc(Cl)cc1)C(=O)C(C(=O)c1ccccc1-c1ccccc1)C1OC(=O)c2ccccc21 (configuration not stated) ?
t

In plain terms: is recorded TGI at least 20 µM for COc1cc2c[n+](C)c3c4cc5c(cc4ccc3c2cc1OC)OCO5 ?
f

In plain terms: is recorded TGI at least 20 µM for COC(=O)C1C(C(=O)OC)C2(OC)c3ccccc3-c3ccccc3C12 (configuration not stated) ?
t

In plain terms: is recorded TGI at least 20 µM for COc1cc(Cl)c2c3c(c(C(C)=O)oc13)CCC2 ?
t
